TESTED_TARGET: T1, ZFP SBS#479 (synthetic, UniProt P08047)
T1 chain: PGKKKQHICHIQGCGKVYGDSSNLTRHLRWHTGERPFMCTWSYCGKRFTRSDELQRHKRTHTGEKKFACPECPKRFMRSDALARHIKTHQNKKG
ASSAY_PROTOCOL: EMSA
STATED_CONDITIONS: tags: MBP fusion
OUTCOME_MEASURE: Kd (nM)
Please reply with the bare figure in nM and do not write the unit itself.

// GTGGCGGACC (dsDNA) DNA 1: GTGGCGGACC DNA 2: GGTCCGCCAC : Kd value = 8.5
